Recorded percentage inhibition, anti factor VIIa/tissue factor activity, one value per entry.
TARGET ENTITY: recombinant human factor VIIa / recombinant human Tissue Factor complex (Homo sapiens, UniProt P08709)
Construct: purchased American Diagnostica Inc, Greenwich, Conn
Sequence (P08709 213-466 limits assumed): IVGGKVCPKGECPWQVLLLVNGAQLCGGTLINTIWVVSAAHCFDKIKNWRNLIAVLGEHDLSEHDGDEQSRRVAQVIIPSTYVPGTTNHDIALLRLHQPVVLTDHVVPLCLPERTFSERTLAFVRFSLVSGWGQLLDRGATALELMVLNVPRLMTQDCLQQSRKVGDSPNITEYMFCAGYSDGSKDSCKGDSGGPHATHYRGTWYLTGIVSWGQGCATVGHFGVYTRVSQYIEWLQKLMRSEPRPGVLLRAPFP
Sequence (P08709 61-212 limits assumed): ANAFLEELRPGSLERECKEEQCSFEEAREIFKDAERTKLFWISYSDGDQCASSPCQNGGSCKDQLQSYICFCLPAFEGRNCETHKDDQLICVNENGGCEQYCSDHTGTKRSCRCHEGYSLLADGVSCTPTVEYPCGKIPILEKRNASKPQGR
Sequence (P13726 33-295 partner): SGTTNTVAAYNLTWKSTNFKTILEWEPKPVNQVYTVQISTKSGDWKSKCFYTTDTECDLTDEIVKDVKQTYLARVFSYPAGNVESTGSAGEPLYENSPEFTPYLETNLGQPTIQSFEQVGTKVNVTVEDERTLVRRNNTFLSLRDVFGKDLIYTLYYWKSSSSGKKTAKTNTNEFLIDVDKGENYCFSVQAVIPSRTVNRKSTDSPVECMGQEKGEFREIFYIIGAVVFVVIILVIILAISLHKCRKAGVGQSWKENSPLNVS
PROTOCOL NOTES: Anti factor VIIa/tissue factor assay (amidolysis of Pefachrome VIIa)
Type: biochemical
MEASUREMENT SETUP: single point, at a concentration of 1×10^−5 M
Description: III. Anti Factor VIIa/Tissue Factor Assay Vascular damage initiates a series of enzyme generation reactions ultimately leading to the formation of a fibrin gel at the site of the injury. The primary enzyme generation reaction is the generation of activated factor VII (VIIa) from proenzyme factor VII. […] Thrombosis develops when there is insufficient control of the coagulation reaction. […] The amidolytic reaction taking place is continuously monitored in a microtiter plate reader. […]
QUANTITY NAME: percentage inhibition, anti factor VIIa/tissue factor activity

{"COMPOUND": "CCS(=O)(=O)N[C@@H](CC(N)=O)C(=O)N[C@@H](CC(C)C)C(=O)N[C@@H](CCCCN)C(=O)C(=O)OC(C)C [EtSO2-Asn-Leu-LysΨ[COCO]-O-iPropyl]", "RESULT": "56%"}
{"COMPOUND": "CCS(=O)(=O)N[C@H](CC(C)C)C(=O)N[C@@H](CCC(N)=O)C(=O)N[C@@H](CCCCN)C(=O)C(=O)OC(C)C [EtSO2-D-Leu-Gln-LysΨ[COCO]-O-iPropyl]", "RESULT": "94%"}
{"COMPOUND": "CCS(=O)(=O)N1Cc2ccccc2C[C@@H]1C(=O)N[C@@H](Cc1ccccc1)C(=O)N[C@@H](CCCCN)C(=O)C(=O)OC(C)C [EtSO2-D-3-Tiq-Phe-LysΨ[COCO]-O-iPropyl]", "RESULT": "91%"}
{"COMPOUND": "CCS(=O)(=O)N[C@H](Cc1ccccc1)C(=O)N[C@@H](CC(C)C)C(=O)N[C@@H](CCCCN)C(=O)C(=O)OC(C)C [EtSO2-D-Phe-Leu-LysΨ[COCO]-O-iPropyl]", "RESULT": "98%"}
